Each recorded value in this set is attributed to PubChem BioAssay AID624141.

# test target: Myc proto-oncogene protein (Homo sapiens)
# experiment summary: small molecules binding His-tagged c-Myc – biochemical, small molecule microarray, anti-His fluorescence, primary screen (AID 624141)
Out of some 17,000 compounds screened, about 260 (1.5%) were called active.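 The calls were made as follows: active = spot fluorescence over background with P-value below 7% in all four replicate spots, showing protein binding; inactive = the rest.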 Shown is part of a subset that was picked to be rich in actives.
Entry note: the call must match one of True for active, False for inactive

Reference set, count: 4
>>> cat("CCOc1ccc(NC(=O)C2CC(=O)n3c(nc4ccccc43)N2)cc1 (stereo not given)")
"False"
>>> cat("Cc1noc(C)c1S(=O)(=O)N(C)C[C@H]1Oc2c(NC(=O)c3cnccn3)cccc2C(=O)N([C@H](C)CO)C[C@H]1C")
"True"
>>> cat("CC(=O)Nc1sccc1C(=O)NCc1ccco1")
"False"
>>> cat("CC(C)NC(=O)N(C)C[C@@H]1OCCCC[C@H](C)Oc2ccc(NC(=O)Nc3ccccc3)cc2C(=O)N([C@H](C)CO)C[C@@H]1C")
"False"

Field: outcome | Entry: Cc1nnc(SCc2cc(=O)[nH]c(N3CCN(Cc4ccccc4)CC3)n2)s1 False

* * *

# test target: Myc proto-oncogene protein (Homo sapiens) (UniProt P01106)
# Sequence (P01106 whole entry, looked up): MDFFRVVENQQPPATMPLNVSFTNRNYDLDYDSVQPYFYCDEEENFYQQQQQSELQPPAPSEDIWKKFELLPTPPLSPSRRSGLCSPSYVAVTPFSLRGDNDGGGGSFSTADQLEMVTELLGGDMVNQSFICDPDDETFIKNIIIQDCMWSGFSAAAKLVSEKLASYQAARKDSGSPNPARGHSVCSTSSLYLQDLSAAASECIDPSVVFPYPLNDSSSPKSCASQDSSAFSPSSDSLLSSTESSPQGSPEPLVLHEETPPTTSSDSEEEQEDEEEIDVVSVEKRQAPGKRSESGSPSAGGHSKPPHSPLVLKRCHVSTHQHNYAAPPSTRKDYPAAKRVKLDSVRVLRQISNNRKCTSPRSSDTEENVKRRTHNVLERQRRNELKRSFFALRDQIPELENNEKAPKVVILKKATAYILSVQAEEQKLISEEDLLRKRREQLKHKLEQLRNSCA
# experiment summary: small molecules binding His-tagged c-Myc – biochemical, small molecule microarray, anti-His fluorescence, primary screen (AID 624141)
Hit rate of the full screen: of about 17,000 compounds, about 260 (1.5%) were called active.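 How the source made its calls: active means spot fluorescence over background with P-value below 7% in all four replicate spots, showing protein binding; inactive means the rest.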 This is one part of a sample in which actives are shown more often than they occur.
Entry note: the call must match one of active, inactive

Reference set, count: 5
>>> cat("Cc1noc(C)c1S(=O)(=O)Nc1ccc2c(c1)C(=O)N([C@H](C)CO)C[C@H](C)[C@H](CN(C)C(=O)CCC(F)(F)F)OCCCC[C@H](C)O2")
"active"
>>> cat("C[C@@H]1CN([C@H](C)CO)C(=O)c2cccc(NS(=O)(=O)c3cccs3)c2O[C@@H]1CN(C)C(=O)Nc1cccc2ccccc12")
"inactive"
>>> cat("CC(C)NC(=O)N(C)C[C@H]1OCCCC[C@H](C)Oc2ccc(NC(=O)Nc3ccc4c(c3)OCO4)cc2C(=O)N([C@H](C)CO)C[C@@H]1C")
"inactive"
>>> cat("C[C@@H]1CCCCO[C@@H](CN(C)C(=O)CCC(F)(F)F)[C@@H](C)CN([C@H](C)CO)C(=O)c2cc(NC(=O)CCC(F)(F)F)ccc2O1")
"inactive"
>>> cat("C[C@@H]1CN([C@H](C)CO)C(=O)c2cccc(NC(=O)Nc3ccc4c(c3)OCO4)c2O[C@H]1CN(C)S(=O)(=O)c1ccccc1")
"inactive"

Field: outcome | Entry: O=C(C1=C[C@H](c2coc3ccccc3c2=O)C[C@H](OCc2ccc(CO)cc2)O1)N1CCOCC1 inactive

Field: outcome | Entry: C[C@H](CO)N1C[C@H](C)[C@H](CN(C)Cc2ccc(C(=O)O)cc2)Oc2c(NC(=O)C3CCOCC3)cccc2C1=O inactive

Field: outcome | Entry: C[C@@H]1CN([C@@H](C)CO)C(=O)c2cc(NS(C)(=O)=O)ccc2O[C@@H](C)CCCCO[C@@H]1CN(C)C(=O)c1ccccc1 inactive

Field: outcome | Entry: Cc1ccc(Cn2ncc3c(N4CCN(CCOc5ccc(C)cc5)CC4)ncnc32)cc1 inactive

Field: outcome | Entry: C[C@@H]1CN([C@H](C)CO)C(=O)c2cc(NS(=O)(=O)c3ccccc3)ccc2O[C@@H](C)CCCCO[C@@H]1CN(C)C(=O)CCC(F)(F)F inactive

Field: outcome | Entry: C[C@H](CO)N1C[C@H](C)[C@H](CN(C)C(=O)CCC(F)(F)F)OCCCC[C@H](C)Oc2ccc(NS(C)(=O)=O)cc2C1=O active

Field: outcome | Entry: Cc1cc2nc(-c3ccc(NC(=O)COc4ccccc4[N+](=O)[O-])cc3)oc2cc1C inactive

Field: outcome | Entry: C[C@H](CO)N1C[C@H](C)[C@H](CN(C)S(=O)(=O)c2cn(C)cn2)Oc2ccc(N(C)C)cc2C1=O inactive

Field: outcome | Entry: Cc1noc(C)c1S(=O)(=O)Nc1ccc2c(c1)C(=O)N([C@@H](C)CO)C[C@@H](C)[C@H](CN(C)C(=O)NC(C)C)OCCCC[C@@H](C)O2 active

* * *

# test target: Myc proto-oncogene protein (Homo sapiens) (UniProt P01106)
# experiment summary: small molecules binding His-tagged c-Myc – biochemical, small molecule microarray, anti-His fluorescence, primary screen (AID 624141)
In all, about 17,000 compounds went through this assay and about 260 (1.5%) were called active.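 Rule for the calls: active = spot fluorescence over background with P-value below 7% in all four replicate spots, showing protein binding; inactive = the rest.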 Many of the other results were omitted from the sample, so actives are more common in it than they were.
Entry note: the call must match one of active, inactive

Field: outcome | Entry: COc1cc(/C=C/C(=O)O[C@@H]2O[C@H](CO[C@@H]3O[C@H](CO)[C@@H](O)[C@H](O)[C@H]3O)[C@@H](O)[C@H](O)[C@H]2OC(=O)/C=C/c2cc(OC)c(O)c(OC)c2)cc(OC)c1O inactive

Field: outcome | Entry: CNC[C@@H]1OCCCC[C@H](C)Oc2ccc(NC(=O)Nc3ccccc3)cc2C(=O)N([C@H](C)CO)C[C@H]1C inactive

Field: outcome | Entry: CN(C)c1ccc(NC(=O)CSc2nc3c(c(C(F)(F)F)c2C#N)CCCCCC3)cc1 inactive

Field: outcome | Entry: C[C@@H]1CN([C@H](C)CO)C(=O)CCCn2nncc2CO[C@@H]1CN(C)Cc1ccc2c(c1)OCCN2C inactive

Field: outcome | Entry: C[C@@H]1CN([C@@H](C)CO)C(=O)CCCn2cc(nn2)CO[C@H]1CN(C)C(=O)Nc1ccc(N2CCCCC2)cc1 inactive

Field: outcome | Entry: Cc1cc(C(=O)Nc2cccc3c2O[C@@H](CN(C)Cc2ccc4c(c2)OCO4)[C@@H](C)CN([C@@H](C)CO)C3=O)n(C)n1 inactive

Field: outcome | Entry: Cc1c(NC(=O)/C(C#N)=C/c2ccccc2Cl)c(=O)n(-c2ccccc2)n1C inactive

* * *

# test target: Myc proto-oncogene protein (Homo sapiens) (UniProt P01106)
# experiment summary: small molecules binding His-tagged c-Myc – biochemical, small molecule microarray, anti-His fluorescence, primary screen (AID 624141)
The campaign covered roughly 17,000 compounds. About 260 (1.5%) were called active.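 How the source made its calls: active means spot fluorescence over background with P-value below 7% in all four replicate spots, showing protein binding; inactive means the rest.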 For the sample, actives were picked, then their nearest neighbours and some compounds at random.
Entry note: the call must match one of active, inactive

Field: outcome | Entry: C[C@H](CO)N1C[C@H](C)[C@@H](CN(C)S(=O)(=O)c2cccs2)Oc2ccc(NC(=O)Nc3cccc4ccccc34)cc2CC1=O inactive

Field: outcome | Entry: O=C1O[C@H](c2ccccc2)[C@H](c2ccccc2)N2[C@H]1[C@@H](C(=O)N1CCN(c3ncccn3)CC1)[C@]1(C(=O)Nc3ccccc31)[C@H]2c1ccc(OCCO)cc1 inactive

Field: outcome | Entry: O=C1C(=O)N(CCn2c3ccccc3c3nc4ccccc4nc32)c2ccccc21 inactive

Field: outcome | Entry: COC(=O)C(CC#Cc1ccc2c(c1)[C@]1(C(=O)N2)[C@H](c2ccccc2OCCO)N2[C@H](c3ccccc3)[C@H](c3ccccc3)OC(=O)[C@H]2[C@@H]1C(N)=O)C(=O)OC inactive

Field: outcome | Entry: Cc1scc(C(=O)NCCc2ccc(S(N)(=O)=O)cc2)c1-c1ccccc1 inactive

Field: outcome | Entry: O=C1O[C@@H](c2ccccc2)[C@@H](c2ccccc2)N2[C@@H](c3ccccc3OCCO)[C@]3(C(=O)Nc4ccc(C#CC5(O)CCCCCC5)cc43)[C@@H](C(=O)N3CCCCCCC3)[C@H]12 inactive

Field: outcome | Entry: CCc1ccc2c(c1)c1nc3ccccc3nc1n2CC(=O)OC active

* * *

# test target: Myc proto-oncogene protein (Homo sapiens) (UniProt P01106)
# experiment summary: small molecules binding His-tagged c-Myc – biochemical, small molecule microarray, anti-His fluorescence, primary screen (AID 624141)
In all, about 17,000 compounds went through this assay and about 260 (1.5%) were called active.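 The calls were made as follows: active = spot fluorescence over background with P-value below 7% in all four replicate spots, showing protein binding; inactive = the rest.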 Shown is part of a subset that was picked to be rich in actives.
Entry note: the call must match one of yes (1) = active, no (0) = inactive

>>> cat("Cc1noc(C)c1NC(=O)Nc1cccc2c1O[C@@H](CN(C)Cc1ccc3c(c1)OCO3)[C@@H](C)CN([C@@H](C)CO)C2=O")
"no (0)"
>>> cat("Cc1cc(C)cc(Oc2c(C(F)(F)F)oc3cc(OCC(=O)O)ccc3c2=O)c1")
"yes (1)"
>>> cat("C[C@@H]1CN([C@H](C)CO)C(=O)c2cccc(NC(=O)Nc3ccccc3)c2O[C@@H]1CN(C)C(=O)NC1CCCCC1")
"no (0)"
>>> cat("C[C@@H]1CCCCO[C@@H](CN(C)C(=O)Cc2ccccc2)[C@H](C)CN([C@@H](C)CO)C(=O)c2cc(NC(=O)Nc3ccc(F)cc3)ccc2O1")
"yes (1)"
>>> cat("C[C@@H]1CCCCO[C@@H](CN(C)C(=O)Nc2ccccc2)[C@@H](C)CN([C@H](C)CO)C(=O)c2cc(NC(=O)Nc3ccc(F)cc3)ccc2O1")
"no (0)"

Field: outcome | Entry: C[C@H]1CN([C@@H](C)CO)C(=O)c2cccc(NC(=O)c3cnccn3)c2O[C@H]1CN(C)C(=O)Nc1ccccc1 no (0)

Field: outcome | Entry: C[C@H](CO)N1C[C@H](C)[C@@H](CN(C)C(=O)Nc2cccc3ccccc23)OCCCC[C@H](C)Oc2ccc(N(C)C)cc2C1=O yes (1)
